Activity reference
System: A498
Experiment: Anticancer activity against human A498 cells assessed as reduction of cell viability at 70 nM relative to control
Format: functional
I only need the number, in %, no unit after it.

compound: O=C1OCC2=C1C(c1ccccc1)c1cc3c(cc1N2CCO)OCCO3 (configuration not stated)
Activity / %: 30

compound: O=C1OCC2=C1C(c1cccc(Br)c1)c1cc3c(cc1N2CCO)CCC3 (configuration not stated)
Activity / %: 90

compound: O=C1OCC2=C1C(c1ccccc1)c1cc3c(cc1N2CCO)OCO3 (configuration not stated)
Activity / %: 30

compound: COc1cc(C2C3=C(COC3=O)N(CCO)c3cc4c(cc32)CCC4)cc(OC)c1OC (configuration not stated)
Activity / %: 95

compound: O=C1OCC2=C1C(c1cccc(C(F)(F)F)c1)c1cc3c(cc1N2CCO)OCCO3 (configuration not stated)
Activity / %: 80

Recorded result, O=C1OCC2=C1C(c1cccc(Br)c1)c1cc3c(cc1N2CCO)OCCO3 (configuration not stated) , Activity: 87

Recorded result, O=C1OCC2=C1C(c1cccc(C(F)(F)F)c1)c1cc3c(cc1N2CCO)CCC3 (configuration not stated) , Activity: 83
